Ref: the supplement of paper PMC3334620

Target: Ste12 (UniProt P13574)
Sequence (P13574 whole entry): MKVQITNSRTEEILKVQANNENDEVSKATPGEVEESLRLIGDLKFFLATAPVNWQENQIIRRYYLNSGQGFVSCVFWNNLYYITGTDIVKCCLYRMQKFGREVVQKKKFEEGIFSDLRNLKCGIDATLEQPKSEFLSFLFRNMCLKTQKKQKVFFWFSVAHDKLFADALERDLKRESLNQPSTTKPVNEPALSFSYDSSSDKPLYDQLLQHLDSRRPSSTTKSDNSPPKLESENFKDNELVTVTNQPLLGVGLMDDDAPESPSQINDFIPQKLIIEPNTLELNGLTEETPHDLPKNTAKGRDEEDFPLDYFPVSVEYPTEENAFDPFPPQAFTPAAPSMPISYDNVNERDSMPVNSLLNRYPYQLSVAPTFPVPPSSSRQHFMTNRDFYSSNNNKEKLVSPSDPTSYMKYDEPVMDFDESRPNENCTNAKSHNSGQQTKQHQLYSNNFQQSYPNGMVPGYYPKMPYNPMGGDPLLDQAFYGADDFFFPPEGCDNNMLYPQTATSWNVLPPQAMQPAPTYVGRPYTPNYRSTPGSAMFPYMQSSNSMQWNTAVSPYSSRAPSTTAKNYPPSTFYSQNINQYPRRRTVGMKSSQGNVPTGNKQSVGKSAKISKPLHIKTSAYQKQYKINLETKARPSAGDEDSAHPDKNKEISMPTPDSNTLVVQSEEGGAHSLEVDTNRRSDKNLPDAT
Test: PBM E-score (8-mer binding enrichment) (E-score (-0.5 to 0.5)); higher = stronger / more preferred TF binding
Settings: protein concentration: 200 nM; construct: GST-DNA-binding domain
Over roughly 33,000 sequences, “E-score (-0.5 to 0.5)” has its median near -0.01; the highest 2% begin near 0.26. What follows is part of a selection rich in the highest values, with near analogues and random picks from the rest.
Please note: MET applies when PBM E-score is -0.0004 or greater, and NOT MET applies otherwise.

Sample answers from the record:
AGGGCGGC    NOT MET
CTAGGAAA    NOT MET

Enquiry: In plain terms: is recorded PBM E-score at least -0.0004 for `CATATATA` ?
Return: MET

Enquiry: Same for `TAAGCTCA`
Return: NOT MET

Enquiry: Same for `AACGATTC`
Return: NOT MET

Enquiry: Same for `GCCGACGA`
Return: MET

Enquiry: Same for `GCTTCCAC`
Return: NOT MET
